Just for reference, ChEMBL document CHEMBL1133283 is where these values come from.

Tested on: HOP-92
protocol_description: In vitro growth inhibition of compound was determined against HOP-92 cell lines of non-small cell lung cancer
Type: functional
test_settings: Homo sapiens
A collection of molecules and their measured GI50

Here are 4 molecules together with their reported answers.
INSERT INTO assay_data (compound_structure, measurement_target, experimental_endpoint, measured_value) VALUES
  ('CCN(CC)C(=S)SS(=O)(=O)c1ccc(NC(C)=O)cc1', 'HOP-92', 'GI50', '16 µM'),
  ('CCN(CC)C(=S)SS(=O)(=O)c1ccc([N+](=O)[O-])cc1', 'HOP-92', 'GI50', '4 µM'),
  ('CCN(CC)C(=S)SS(=O)(=O)c1ccccc1C(=O)O', 'HOP-92', 'GI50', '> 100 µM'),
  ('CCN(CC)C(=S)SS(=O)(=O)c1ccc(N)cc1', 'HOP-92', 'GI50', '5 µM');

Input: Requested read-out GI50, target or system HOP-92, entry CCN(CC)C(=S)SS(=O)(=O)c1ccccc1[N+](=O)[O-]
Output: 14 µM

====

Test system: A549
protocol_description: In vitro growth inhibition of compound was determined against A549/ATCC cell lines of non-small cell lung cancer
Assay type: functional
test_settings: Homo sapiens
A collection of molecules and their measured GI50
Please state the figure in nM; there is no need to write the unit.

Here are 4 molecules together with their reported answers.
INSERT INTO assay_data (compound_structure, experimental_endpoint, measured_value) VALUES
  ('CCN(CC)C(=S)SS(=O)(=O)c1ccccc1[N+](=O)[O-]', 'GI50', 3000),
  ('CCN(CC)C(=S)SS(=O)(=O)c1ccc([N+](=O)[O-])cc1', 'GI50', 1000),
  ('CCN(CC)C(=S)SS(=O)(=O)c1ccc(N)cc1', 'GI50', 7000),
  ('CCN(CC)C(=S)SS(=O)(=O)c1ccccc1C(=O)O', 'GI50', 6500);

Next molecule, GI50 to be filled in.
Input: Look up GI50: CCN(CC)C(=S)SS(=O)(=O)c1ccc(NC(C)=O)cc1
Output: 200

====

Tested on: SN12C
protocol_description: In vitro growth inhibition of compound was determined against SN12C cell lines of Renal cancer
Assay type: functional
test_settings: Homo sapiens
A collection of compounds and their measured GI50
Please state the figure in µM; there is no need to write the unit.

INSERT INTO measurements (compound_structure, measurement_target, measured_value) VALUES
  ('CCN(CC)C(=S)SS(=O)(=O)c1ccc(NC(C)=O)cc1', 'SN12C', 18),
  ('CCN(CC)C(=S)SS(=O)(=O)c1ccc([N+](=O)[O-])cc1', 'SN12C', 27);

Next compound, GI50 to be filled in.
Input: Look up GI50: CCN(CC)C(=S)SS(=O)(=O)c1ccccc1[N+](=O)[O-]
Output: 18

====

A collection of compounds and their measured GI50
System: IGROV-1
protocol_description: In vitro growth inhibition of compound was determined against IGROVI cell lines of Ovarian cancer
Type: functional
test_settings: Homo sapiens

INSERT INTO measurements (compound_structure, measurement_target, measured_value) VALUES
  ('CCN(CC)C(=S)SS(=O)(=O)c1ccccc1C(=O)O', 'IGROV-1', '> 100 µM'),
  ('CCN(CC)C(=S)SS(=O)(=O)c1ccc(NC(C)=O)cc1', 'IGROV-1', '12 µM'),
  ('CCN(CC)C(=S)SS(=O)(=O)c1ccccc1[N+](=O)[O-]', 'IGROV-1', '0.5 µM');

Next compound, GI50 to be filled in.
Input: Requested read-out GI50, target or system IGROV-1, entry CCN(CC)C(=S)SS(=O)(=O)c1ccc(N)cc1
Output: 5 µM
